target: T1, human PD-L1-His (Sino Biological, Cat #10084-H08H) (human, UniProt Q9NZQ7 19-238); assay: BLI (Gator), antibody on HFC probe, human PD-L1-His in solution
T1 construct: Bought protein; also called human PD-L1 ECD-His; recombinant human PD-L1-His protein; not shown: His tag
T1 sequence (Q9NZQ7 19-238): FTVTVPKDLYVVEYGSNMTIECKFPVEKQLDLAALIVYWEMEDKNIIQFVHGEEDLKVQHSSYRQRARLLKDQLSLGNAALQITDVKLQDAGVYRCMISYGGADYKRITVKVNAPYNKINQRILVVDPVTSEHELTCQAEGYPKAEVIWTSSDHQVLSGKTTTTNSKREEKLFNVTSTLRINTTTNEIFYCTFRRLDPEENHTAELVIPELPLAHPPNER
PROPERTY: koff (s⁻¹)
The reply should be a number in s⁻¹, with the unit left off.

For this binder ( 73C8 (antibody, human IgG1, V domains shown) VH: QEQLEESGGGLVQPEGSLTLTCTVSGFSFSGDYYMSWVRQAPGKGLEWVASIYTGSLNTYYATWAKGRFTISLTSSTTVTLQMTSLTAADTATYFCARRNKNADYGHFDLWGPGTLVTVSS VL: YDMTQTPASVEVAVGGTVTIKCQASQSINDRLAWYQQKPGQPPKLLIYAASTLASGVPSRFRGSGSGTDFTLTISDLECADAATYYCQQGWTVSSLDNAFGGGTEVVAM ), measured koff is 9.39e-05
